experiment: in vivo; settings: male, Sprague Dawley, rat, Concentration of Saquinavir in plasma, 2 hr Post-Dose

>  <smiles.notation>
CC(C)(C)NC(=O)[C@@H]1C[C@@H]2CCCC[C@@H]2CN1C[C@@H](O)[C@H](Cc1ccccc1)NC(=O)[C@H](CC(N)=O)NC(=O)c1ccc2ccccc2n1

>  <concentration at 2 hr [ng/mL]>
205

$$$$

----------
Tested on: HCT-15
Experiment: Reversal of MDR in P-gp-expressing cell line
Format: cell-based
Conditions: Homo sapiens; HCT-15 colorectal carcinoma; read-out: Formula 2 compound EC50, reversal of Paclitaxel resistance
Experimental: Cell proliferation IC50s and MDR reversal EC50s were determined from 3-day dose-response curves carried out in triplicate in 96-well plates essentially as described by Monks et al. (J. Natl. Cancer Inst., 83:757-66, 1991). […] After a 2 h incubation for non-adherent cells and overnight incubation for adherent cells, the initial cell density was determined by fluorescence readout of Alamar Blue metabolism. […] Final cell density was determined with Alamar Blue. […]

>  <smiles.notation>
CCOC/C=C/c1ccc(-c2nc(-c3ccc(NC(C)C)cc3)c(-c3ccc(NC(C)C)cc3)[nH]2)cc1

>  <target.entity>
HCT-15

>  <value.unit>
nM

>  <EC50>
1.6

$$$$

----------
assay: Oral paclitaxel bioavailability enhancement in rats (mesylate salt); assay type: in vivo; details: male, Sprague Dawley, rat, plasma, Group 2: paclitaxel 40 mg/kg p.o. + vehicle, read-out: Paclitaxel mean terminal phase half-life (t1/2) (converted)

>  <smiles.notation>
CC(=O)O[C@H]1C(=O)[C@@]2(C)[C@H]([C@H](OC(=O)c3ccccc3)[C@]3(O)C[C@H](OC(=O)[C@H](O)[C@@H](NC(=O)c4ccccc4)c4ccccc4)C(C)=C1C3(C)C)[C@]1(OC(C)=O)CO[C@@H]1C[C@@H]2O

>  <value.unit>
h

>  <half-life>
3.9

$$$$

----------
assay: in vivo; conditions: male, Sprague Dawley, rat, po, 20 mg/kg

>  <smiles.notation>
CC(C)(C)NC(=O)[C@@H]1C[C@@H]2CCCC[C@@H]2CN1C[C@@H](O)[C@H](Cc1ccccc1)NC(=O)[C@H](CC(N)=O)NC(=O)c1ccc2ccccc2n1

>  <Cmax>
181 ng/mL

$$$$

----------
assay: Oral paclitaxel bioavailability enhancement in rats (mesylate salt); type: in vivo; settings: male, Sprague Dawley, rat, plasma, Group 2: paclitaxel 40 mg/kg p.o. + vehicle
outcome.measure: AUC(0-t) (ng·h/mL)

>  <smiles.notation>
CC(=O)O[C@H]1C(=O)[C@@]2(C)[C@H]([C@H](OC(=O)c3ccccc3)[C@]3(O)C[C@H](OC(=O)[C@H](O)[C@@H](NC(=O)c4ccccc4)c4ccccc4)C(C)=C1C3(C)C)[C@]1(OC(C)=O)CO[C@@H]1C[C@@H]2O

>  <outcome.measure>
AUC(0-t)

>  <reported.result>
67

$$$$

----------
system: CEM/VLB1000; assay: Reversal of MDR in P-gp-expressing cell line; assay type: cell-based; settings: Homo sapiens; CEM/VLB1000 lymphoma; ± SD; read-out: Formula 2 compound EC50, reversal of Doxorubicin resistance
pEC50: −log10 of the molar value.

>  <compound>
CCOC/C=C/c1ccc(-c2nc(-c3ccc(NC(C)C)cc3)c(-c3ccc(NC(C)C)cc3)[nH]2)cc1 [Formula 2 compound]

>  <pEC50>
7.05

$$$$
